Give TGI for every item shown.
tested on: K-562 leukemia; experiment: NCI tumour cell line growth inhibition, 48 h
Numbers only; they are read as µM.

Exercise: Recorded TGI for Cc1cc(NC(=O)C2C3C=CC(O3)C2C(=O)O)no1 (stereo not given) with K-562 leukemia, please?
Solution: 42.5

Exercise: Form: Entry = COC(=O)C(CCC(=O)CCl)N1C(=O)c2ccccc2C1=O (stereo not given) | System = K-562 leukemia | TGI = ____
Solution: 12.7

Exercise: Hi! What's the reported TGI for Cc1ccc2nc(-c3ccc(OCC(=O)N=Nc4c(O)[nH]c5ccccc45)cc3)[nH]c2c1 on K-562 leukemia?
Solution: 9.44

Exercise: Param readout= TGI; system= K-562 leukemia; entry= COC(=O)CCc1c(Cc2ccc[nH]2)[nH]c(C(=O)OCc2ccccc2)c1C ; returns value.
Solution: 58.5

Exercise: Value wanted: TGI (K-562 leukemia) of entry O=C(N/C(=C\c1ccc(Br)cc1)c1nc2ccccc2[nH]1)c1ccccc1
Solution: 52.6

Exercise: Could you share what TGI was measured for COc1ccc(NC(=O)/C=C(C)/C=C/C=C(C)/C=C/C2=C(C)CCCC2(C)C)cc1 , tested on K-562 leukemia?
Solution: 7.23

---

test system: HT29 colon; assay: NCI tumour cell line growth inhibition, 48 h
experimental-readout: TGI

Exercise: Kindly state the measured TGI obtained for CC(C)(C)C(=O)OCC1OC(N=[N+]=[N-])C(OC(=O)C(C)(C)C)C(OC(=O)C(C)(C)C)C1OC(=O)C(C)(C)C (stereo unspecified) with HT29 colon.
Solution: > 100 µM

Exercise: Notebook entry, HT29 colon assay: TGI of CCCCCCCCOC(=O)c1c(C)[nH]c(/C=C2\N=C(c3ccc[nH]3)C=C2OC)c1C = ?
Solution: 1.43 µM

Exercise: Field: TGI (HT29 colon). Entry: CS[C@]12[C@@H]3C(=O)N(C)C(=O)[C@@H]3[C@](C)(C(=O)N1C)C(=O)N2c1ccccc1
Solution: > 100 µM

Exercise: // fetch HT29 colon TGI for CCC(COC(=O)CC[C@@H](NC(=O)C(C)NC(=O)C(C)OC1C(O)C(CO)OC(OCc2ccccc2)C1NC(C)=O)C(N)=O)NC1c2ccccc2Nc2cccc([N+](=O)[O-])c21 (stereo partly specified)
Solution: > 100 µM

Exercise: Observed TGI on HT29 colon for C[N+](C)(C)C=Nc1cccc2c1CCCC2 , please.
Solution: > 100 µM

Exercise: Any idea what TGI came out for OCC(CCc1ccccc1I)C1=CCC2(CC1)OCCO2 (stereo unspecified) on HT29 colon?
Solution: 41.6 µM

---

Please respond with reported TGI for every item in the list.
system: M19-MEL melanoma; experiment: NCI tumour cell line growth inhibition, 48 h

Exercise: What value of TGI has been recorded for this entry: O=c1cccccc1NCCCCCCCNc1cccccc1=O
Solution: 84.8 µM

Exercise: I have this compound here, COC(=O)C1C(=O)CC2CCCCC21 (stereo not drawn) , and I need its recorded TGI.
Solution: > 100 µM

Exercise: Consider the compound shown here: COc1ccc2c(c1)OCCc1cn[nH]c1-2 What is its recorded TGI?
Solution: > 100 µM

---

Would you kindly list TGI for each of these compounds?
tested on: HCT-15 colon; experiment: NCI tumour cell line growth inhibition, 48 h

Exercise: Fill in: TGI of Cc1ccc(-c2nnc(CCCCCCCCc3nnc(-c4ccc(C)cc4O)n3N)n2N)c(O)c1 is ___
Solution: > 100 µM

Exercise: Return reported TGI; argument: Cc1ccc(N(O)C(C)(C)C)cc1
Solution: > 100 µM

Exercise: TGI for CC(C)(C)CC(C)(C)NC(=S)NO ?
Solution: > 100 µM

---

test system: OVCAR-5 ovarian; assay: NCI tumour cell line growth inhibition, 48 h
experimental-readout: TGI

Exercise: Find the measured TGI: item Cn1cccc1-c1cc(-c2ccccc2)[nH]c(=O)c1C#N , target or system OVCAR-5 ovarian.
Solution: > 100 µM

Exercise: Can you look up TGI on OVCAR-5 ovarian for CC(C)(C)CC(C)(C)NC(=S)NO ?
Solution: > 100 µM

Exercise: Hello, I am looking for reported TGI with OVCAR-5 ovarian for CC(=O)OC12c3ccccc3C(c3ccccc31)C1C(=O)N(c3ccccn3)C(=O)C12 (configuration not stated) . Could you help?
Solution: > 100 µM

Exercise: # get_value(readout= TGI, system= OVCAR-5 ovarian) for Cc1ccc(S(=O)(=O)[C@@H](Cl)[C@H]2N=C(Cl)NN=C2c2ccccc2)cc1
Solution: > 100 µM

Exercise: Find TGI (OVCAR-5 ovarian) for the entry O=C(N/C(=C\c1ccc(Br)cc1)c1nc2ccccc2[nH]1)c1ccccc1
Solution: 52 µM

Exercise: GET /values?readout=TGI&system=OVCAR-5 ovarian&item= O=c1[nH]c(=O)n(COCCO)c2ccsc12
Solution: > 100 µM

Exercise: OVCAR-5 ovarian / TGI / O=CC(O)C(O)C(O)C1CNC(=S)O1 (configuration not stated) : value?
Solution: > 100 µM

Exercise: Observed TGI on OVCAR-5 ovarian for COc1ccc(/C=C/C(=O)c2ccc(-n3cc(CN4CCN(c5cc6c(cc5F)c(=O)c(C(=O)O)cn6C5CC5)CC4)nn3)cc2)cc1OC , please.
Solution: 25.7 µM

Exercise: Give recorded TGI with OVCAR-5 ovarian for the following molecule: O=C1C=C2CCC[C@H]3OC(=O)C[C@@]23CC1
Solution: > 100 µM

Exercise: What value of TGI on OVCAR-5 ovarian does CCCn1cnc2c(SCC(=O)O)nc(N)nc21 have?
Solution: > 100 µM

Exercise: For OVCAR-5 ovarian, provide TGI of CCCCCN(CCCCC)CC(O)c1cc(Cl)ccc1OC (configuration not stated) please.
Solution: 23.8 µM

Exercise: Please tell me: TGI of O=C(Nc1ccc(F)cc1F)c1cc(Cl)ccc1O , system OVCAR-5 ovarian?
Solution: > 100 µM

Exercise: I'm curious: which TGI was measured for COC(=O)C12CC(NC(=O)c3csc([C@@H](C[C@H](C(C)C)N(C)C(=O)[C@@H](NC(=O)[C@H]4CCCCN4C)C4CC4)OC(C)=O)n3)(C1)C2 tested on OVCAR-5 ovarian?
Solution: > 16.7 µM

Exercise: Reported TGI for OVCAR-5 ovarian, given C=C/C(C)=C/C[C@]1(C)[C@H](C)[C@@H](OC(=O)CCC)[C@H](O)[C@@]23C(=C[C@H](OC)C[C@@H]12)[C@@H](OC(=O)CCC)O[C@H]3OC(C)=O ?
Solution: 2.54 µM

Exercise: Could you share what TGI was measured for CCn1c(-c2cc3c([nH]c4ccccc43)c(-c3cccc(O)c3)n2)n[nH]c1=S , tested on OVCAR-5 ovarian?
Solution: 32.9 µM

Exercise: Checklist item: TGI tested on OVCAR-5 ovarian, entry COc1cccc(/C(Cl)=C(\C=O)c2cccc(OC)c2)c1 , value?
Solution: 38 µM

Exercise: Entry [O-][N+]1(CC[N+]2([O-])CCCCC2)CCCCC1 , system OVCAR-5 ovarian: what TGI was measured?
Solution: > 100 µM

---

system: RXF 393 renal; assay: NCI tumour cell line growth inhibition, 48 h
experimental-readout: TGI

Exercise: Give TGI (RXF 393 renal) of the following compound: O=c1[nH]c(=O)n(COCCO)c2ccsc12
Solution: > 100 µM

Exercise: Give the reported TGI for Cc1cc(C)nc(/C(=N\NC(N)=O)C(=O)Nc2nc3ccc(C)cc3s2)c1 (system: RXF 393 renal).
Solution: > 100 µM

Exercise: Field: TGI (RXF 393 renal). Entry: Cc1cc(Nc2nc(C(=O)Nc3ccccc3)nc3ccccc23)n[nH]1
Solution: > 25 µM

Exercise: Lab note: need TGI with RXF 393 renal for entry CCOc1ccc(/C(C=O)=C(\Cl)c2ccc(OC)cc2)cc1 , please look it up.
Solution: > 100 µM

---

Would you kindly list TGI for each of these compounds?
system: NCI-H522 lung; assay: NCI tumour cell line growth inhibition, 48 h
Numbers only; they are read as µM.

Exercise: I'd like to know its TGI. The compound in question is COC(=O)C1=C(CS(=O)c2ccc([N+](=O)[O-])cc2[N+](=O)[O-])C2C=CC1C2 (centres undefined)
Solution: 27.3

Exercise: Which TGI value is on record for Oc1c(Cl)cc(Cl)c2ccc(Cn3cc(-c4cc(C(F)(F)F)cc(C(F)(F)F)c4)nn3)nc12 ?
Solution: 3.55

Exercise: Entry under review: COc1cc2ncnc(-n3ncc4cc(NC(=O)Nc5ccc(Cl)c(Cl)c5)ccc43)c2cc1OC . Reported TGI?
Solution: 6

---

test system: NCI-H226 lung; assay: NCI tumour cell line growth inhibition, 48 h
experimental-readout: TGI

Exercise: Looking for the measured TGI of O=C(O)/C=C\C(=O)Nc1ccccn1 , can you help?
Solution: > 100 µM

Exercise: Need TGI of Cc1cc(Cl)ccc1OCC(=O)Nc1nc(N)nc(N)n1 , thanks.
Solution: > 100 µM

Exercise: Quick check: TGI of Cc1cc(Nc2nc(C(=O)Nc3ccccc3)nc3ccccc23)n[nH]1 ?
Solution: > 25 µM

Exercise: Look up TGI: NNc1cnn(-c2ccccc2)c(=O)c1Cl
Solution: > 100 µM

Exercise: Data request, read-out TGI, for C#CCNC(=O)NCCCCC(NC(=O)OCc1ccccc1)C(=O)OCc1ccccc1 (stereo not drawn)
Solution: > 100 µM

Exercise: What TGI value was documented for this molecule, COC(=O)C1C(=O)CC2CCCCC21 (stereo not drawn) ?
Solution: > 100 µM

Exercise: Item CC1(C)CC2(C)CC1CC2(O)c1ccccc1 (stereo not drawn) has what recorded TGI?
Solution: > 100 µM

Exercise: Value lookup for TGI; key = CNc1ccc2ncccc2c1[N+](=O)[O-]
Solution: > 100 µM

Exercise: Bench note: what TGI did CC(C)c1nc(N(C)S(C)(=O)=O)nc(-c2ccc(F)cc2)c1/C=C/[C@@H](O)C[C@@H](O)CC(=O)O show?
Solution: > 100 µM

Exercise: Record request: TGI value, item COc1cc2ncnc(-n3ncc4cc(NC(=O)Nc5ccc(Cl)c(Cl)c5)ccc43)c2cc1OC
Solution: 4.8 µM

Exercise: Item O=[N+]([O-])c1ccc2oc(=Nc3ccccc3)c(Nc3ccccc3)nc2c1 has what recorded TGI?
Solution: > 100 µM

Exercise: What measured TGI goes with COC(=O)c1cc2c(cc1Cl)SC1=NN(C)S(=O)N1S2(=O)=O (stereo not drawn) ?
Solution: > 100 µM

Exercise: Need TGI, item CCc1cccc(C)c1N1C(=O)C(=O)C(c2nc3ccccc3o2)C(=O)C1=O
Solution: > 100 µM

Exercise: Entry O=C1Nc2cc([N+](=O)[O-])c(Br)cc2C1=O : reported TGI = ?
Solution: 76.4 µM

Exercise: Name the recorded TGI for CCn1c(-c2cc3c([nH]c4ccccc43)c(-c3cccc(O)c3)n2)n[nH]c1=S .
Solution: 55.8 µM

Exercise: Returns the measured TGI for the input molecule. Input: CCCCCCCC(=O)OCCCC1[C@]2(C)CC[C@@]3(C)C([C@H](C)CCC=C(C)C)CC[C@]3(C)C2CC[C@]12OC2(C)C (stereo partly drawn)
Solution: 92.3 µM

Exercise: Query: TGI; subject: CC(=O)OC12c3ccccc3C(c3ccccc31)C1C(=O)N(c3ccccn3)C(=O)C12 (stereo not drawn)
Solution: > 100 µM

Exercise: Can you look up the measured TGI of Cc1ccc(S(=O)(=O)N=NC=C2c3ccccc3N(O)c3ccccc32)cc1 for me?
Solution: 29 µM
